Exercise: state measured fold change of affinity for each of the binders provided.
- Target: T1, Human CD3eg linker (human)
- T1 construct: single-chain construct; also called recombinant human CD3
- T1 chain: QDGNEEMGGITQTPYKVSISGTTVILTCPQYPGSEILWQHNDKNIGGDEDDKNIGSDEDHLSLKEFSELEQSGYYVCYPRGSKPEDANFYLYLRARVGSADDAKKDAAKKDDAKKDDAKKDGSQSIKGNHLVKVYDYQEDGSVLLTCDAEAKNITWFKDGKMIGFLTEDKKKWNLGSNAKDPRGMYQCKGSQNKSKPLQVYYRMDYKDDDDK
- Measurement protocol: SPR, vs unmutated H183/L072
Give bare numbers, in fold.

dBBDu183H D101H/dBBDu072L (antibody, name in Kabat numbering, V domains shown) VH: QVQLVESGGGLVQPGRSLRLSCAASGFTFSNAWMHWVRQAPGKGLEWVAQIKDKGNAYAAYYAPSVKGRFTISRDDSKNSIYLQMNSLKTEDTAVYYCHYVHYASASTVLPAFGVHAWGQGTTVTVSS VL: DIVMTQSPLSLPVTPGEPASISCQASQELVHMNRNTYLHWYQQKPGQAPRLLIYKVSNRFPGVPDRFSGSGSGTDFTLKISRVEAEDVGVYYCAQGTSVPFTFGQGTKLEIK; 0.4

--- query ---
Prompt: Given the binder dBBDu183H H96T/dBBDu072L (antibody, name in Kabat numbering, V domains shown) VH: QVQLVESGGGLVQPGRSLRLSCAASGFTFSNAWMHWVRQAPGKGLEWVAQIKDKGNAYAAYYAPSVKGRFTISRDDSKNSIYLQMNSLKTEDTAVYYCHYVTYASASTVLPAFGVDAWGQGTTVTVSS VL: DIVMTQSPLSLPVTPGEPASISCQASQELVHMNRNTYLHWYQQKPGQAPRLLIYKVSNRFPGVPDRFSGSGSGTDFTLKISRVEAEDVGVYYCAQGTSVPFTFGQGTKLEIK , what is its reported fold change of affinity?
Completion: 0
